Data provenance: ChEMBL document CHEMBL2375225

assay: Displacement of [3H]-5-HT from calf 5HT1D receptor; parameters: species or system Bos taurus
pIC50: −log10 of the molar value.

[
  {
    "compound": "Cc1[nH]c2ccc(-c3ccccc3)cc2c1C1=CCNCC1",
    "comparison.operator": "=",
    "pIC50": 6.41
  },
  {
    "compound": "Cc1[nH]c2ccc(Br)cc2c1C1=CCNCC1",
    "comparison.operator": "=",
    "pIC50": 6.89
  },
  {
    "compound": "Cc1[nH]c2ccc(F)cc2c1C1=CCNCC1",
    "comparison.operator": "=",
    "pIC50": 6.80
  },
  {
    "compound": "COc1ccc2[nH]cc(C3=CCNCC3)c2c1 [RU-24969]",
    "comparison.operator": "=",
    "pIC50": 7.70
  },
  {
    "compound": "Cc1[nH]c2ccc(-c3ccsc3)cc2c1C1=CCNCC1",
    "comparison.operator": "=",
    "pIC50": 7.48
  },
  {
    "compound": "Cc1[nH]c2ccc([N+](=O)[O-])cc2c1C1=CCNCC1",
    "comparison.operator": "=",
    "pIC50": 6.51
  },
  {
    "compound": "C1=C(c2c(-c3ccccc3)[nH]c3ccccc23)CCNC1",
    "comparison.operator": "<",
    "pIC50": 6.00
  },
  {
    "compound": "Cc1[nH]c2ccccc2c1C1=CCNCC1",
    "comparison.operator": "=",
    "pIC50": 5.92
  },
  {
    "compound": "Cc1[nH]c2ccc(OS(=O)(=O)C(F)(F)F)cc2c1C1=CCNCC1",
    "comparison.operator": "=",
    "pIC50": 7.46
  }
]
